# assayedSystem: Muscarinic acetylcholine receptor M2 (Rattus norvegicus, UniProt P10980)
# Sequence (P10980 whole entry): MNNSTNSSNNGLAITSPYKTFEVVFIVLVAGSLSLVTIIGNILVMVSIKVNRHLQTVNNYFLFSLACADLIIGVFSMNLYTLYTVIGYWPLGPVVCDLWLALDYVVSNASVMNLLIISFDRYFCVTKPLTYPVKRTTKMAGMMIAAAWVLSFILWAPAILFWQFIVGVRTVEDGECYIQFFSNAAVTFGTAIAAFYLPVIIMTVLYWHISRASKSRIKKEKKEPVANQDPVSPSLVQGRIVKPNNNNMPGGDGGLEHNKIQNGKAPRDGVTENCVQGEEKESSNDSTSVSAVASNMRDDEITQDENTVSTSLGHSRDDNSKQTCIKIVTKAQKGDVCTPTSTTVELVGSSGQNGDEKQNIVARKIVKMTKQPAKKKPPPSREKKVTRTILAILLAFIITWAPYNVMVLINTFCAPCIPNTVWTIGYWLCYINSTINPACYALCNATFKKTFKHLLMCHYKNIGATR
pKi: −log10 of the molar value.

compound	pKi
CCN(CC)CC1CCCCN1CC(=O)N1c2ccccc2C(=O)Nc2cccnc21 (stereo unspecified)	7.47
